# System: Cavia porcellus
# assay.name: Bronchodilator activity in trachea and jugular vein cannulated guinea pig assessed as inhibition of histamine-induced response at 12.5 mg/kg, iv after 5 mins relative to control
# Type: functional
# key: entry, value: inhibition in vivo at 12.5 mg/kg
measurement.name: inhibition in vivo at 12.5 mg/kg (%)

                            chemical_smiles           system                  measurement_name  numeric_value
0  O=C([O-])c1ccc2c(c1)CCc1c(Cl)cccc1C2=O.[Na+]  Cavia porcellus  inhibition in vivo at 12.5 mg/kg             76
1        O=C(O)c1ccc2c(=O)c3cccc(F)c3ccc2c1  Cavia porcellus  inhibition in vivo at 12.5 mg/kg             22
2  Cc1ccc2c(c1)CCc1cc(C(=O)[O-])ccc1C2=O.[Na+]  Cavia porcellus  inhibition in vivo at 12.5 mg/kg              0
3          Cc1cccc2c1CCc1cc(C(=O)O)ccc1C2=O  Cavia porcellus  inhibition in vivo at 12.5 mg/kg              0
4           O=C(O)c1ccc2c(c1)CCc1ccccc1C2=O  Cavia porcellus  inhibition in vivo at 12.5 mg/kg              0
5  O=C([O-])c1ccc2c(c1)CCc1ccc(Cl)cc1C2=O.[Na+]  Cavia porcellus  inhibition in vivo at 12.5 mg/kg             24
6  O=C([O-])c1ccc2c(c1)CCc1c(Cl)cc(Cl)cc1C2=O.[Na+]  Cavia porcellus  inhibition in vivo at 12.5 mg/kg             53
7  O=C([O-])c1ccc2c(c1)C(=O)c1cc(Br)ccc1CC2.[Na+]  Cavia porcellus  inhibition in vivo at 12.5 mg/kg              0
8       O=C(O)c1ccc2c(c1)CCc1c(Br)cccc1C2=O  Cavia porcellus  inhibition in vivo at 12.5 mg/kg             46
9     COc1ccc2c(c1)C(=O)c1ccc(C(=O)O)cc1CC2  Cavia porcellus  inhibition in vivo at 12.5 mg/kg             13
